# System: rhinovirus serotype 1B
# Experiment Notes: plaque reduction test
# Format: cell-based
# Measurement Conditions: Enterovirus, rhinovirus serotype 1B, plaque reduction test; read-out: ED50 (the source's name)
# From the text: Plaque suppression is proportional to compound concentration.
Each item that follows carries a reported EC50.
Please give a number only; it is taken to be in nM.

Some solved entries appear below for comparison.
1) Brc1ccc(C2CCc3cc(Br)ccc3O2)cc1 (centres unmarked); 8
2) Fc1ccc2c(c1)CCC(c1ccc(Br)cc1)O2 (centres unmarked); 13
3) CCc1ccc2c(c1)CCC(c1ccc(Cl)cc1)O2 (centres unmarked); 52
4) Brc1ccc(C2CCc3cc(I)ccc3O2)cc1 (centres unmarked); 76
5) Fc1ccc(C2CCc3cc(F)ccc3O2)cc1 (centres unmarked); 68
6) Ic1ccc2c(c1)CCC(c1ccccc1)O2 (centres unmarked); 58
7) Clc1ccc(C2CCc3ccccc3O2)cc1Cl (centres unmarked); 40

Next up:
Prompt: I would be grateful if you could share the reported EC50 for Clc1ccc(C2CCc3cc(Br)ccc3O2)cc1 (centres unmarked) .
Completion: 5

---

# Tested on: rhinovirus serotype 1B
# Experiment Notes: plaque reduction test
# Type: cell-based
# Measurement Conditions: Enterovirus, read-out: ED50
Assay Readout: pEC50
Answer as the number alone; pEC50 is minus log10 of concentration in mol/L.

Prompt: Can you share its pEC50? I mean this molecule: Clc1ccc(C2CCc3ccccc3O2)cc1 (stereo not shown)
Completion: 7.40

---

# System: rhinovirus serotype 1B
# Experiment Notes: plaque reduction test
# Type: cell-based
# Measurement Conditions: Enterovirus, rhinovirus serotype 1B, plaque reduction test; read-out: ED50 (the source's name)
Assay Readout: EC50
I'd appreciate it if you wrote the number followed by its unit.

Use the examples below as a reference point.
1) Clc1ccc2c(c1)CCC(c1ccc(Br)cc1)O2 (stereo not shown) [4'-bromo-6-chloro, 4'-bromo-6-chloro-flavan]; 21 nM
2) Brc1ccc(C2CCc3ccccc3O2)cc1 (stereo not shown) [4'-bromo-, 4'-Bromoflavan]; 36 nM
3) Brc1ccc2c(c1)CCC(c1ccccc1)O2 (stereo not shown) [Example 6-bromo-, 6-bromo flavan]; 19 nM
4) CC(C)c1ccc(C2CCc3cc(Cl)ccc3O2)cc1 (stereo not shown) [6-chloro-4-(1-methylethyl), 6-chloro 4'-isopropylflavan]; 36 nM
5) Ic1ccc(C2CCc3cc(I)ccc3O2)cc1 (stereo not shown) [4',6-diiodo-, 4',6-diiodo]; 43 nM

Prompt: What value of EC50 on rhinovirus serotype 1B does CC(=O)Oc1ccc(C2CCc3ccccc3O2)cc1 (stereo not shown) [4'-acetoxyl-] have?
Completion: 67 nM

Prompt: Entry Oc1ccccc1C1CCc2ccccc2O1 (stereo not shown) [2'-hydroxyl-, 2'-hydroxyflavan] , system rhinovirus serotype 1B: what EC50 was measured?
Completion: 780 nM

---

# Test system: rhinovirus serotype 1B
# Experiment Notes: plaque reduction test
# Type: cell-based
# Measurement Conditions: Enterovirus, rhinovirus serotype 1B, plaque reduction test; read-out: ED50 (the source's name)
Assay Readout: EC50 (nM)
Report the figure in nM without appending any unit label.

Completed entries (count: 2):
1. COc1ccc2c(c1)CCC(c1ccccc1)O2 (stereo not shown); 12.5
2. Clc1ccc2c(c1)OC(c1ccccc1)CC2 (stereo not shown); 70

Prompt: What EC50 value was documented for this compound, COc1ccc(C2CCc3cc(Cl)ccc3O2)cc1 (stereo not shown) ?
Completion: 13

Prompt: I would be grateful if you could share the reported EC50 for Clc1ccccc1C1CCc2ccccc2O1 (stereo not shown) .
Completion: 112

---

# System: rhinovirus serotype 1B
# Experiment Notes: plaque reduction test
# Assay type: cell-based
# Measurement Conditions: Enterovirus, rhinovirus serotype 1B, plaque reduction test; read-out: ED50 (the source's name)
Assay Readout: pEC50
Lab note: report pEC50 as minus log10 of the concentration in molar units, number only.

Example molecules with recorded pEC50:
1) Fc1ccc2c(c1)CCC(c1ccc(Cl)cc1)O2 (stereo not drawn) [4'-chloro-6-fluoro-, 6-fluoro-4'-chloroflavan]; 7.82
2) Clc1cccc(Cl)c1C1CCc2ccccc2O1 (stereo not drawn) [2',6'-dichloro-, 2',6'-Dichloroflavan]; 7.32

Prompt: Which measured pEC50 value corresponds to Cc1ccc(C2CCc3ccccc3O2)cc1 (stereo not drawn) [4'-methyl-, 4'-methylflavan] ?
Completion: 7.90

Prompt: Returns the measured pEC50 for the input molecule. Input: Cc1ccc2c(c1)OC(c1ccc(Cl)cc1)CC2 (stereo not drawn) [4'-chloro-7-methyl-, 4'-chloro-7-methyl-flavan]
Completion: 7.81

Prompt: Request the reported pEC50 associated with Clc1ccc(C2CCc3ccc(Cl)cc3O2)cc1 (stereo not drawn) [4',7-dichloro-, 4',7-Dichloroflavan]
Completion: 7.32

Prompt: Any idea what pEC50 was measured for Fc1ccc2c(c1)CCC(c1ccccc1)O2 (stereo not drawn) [Example 6-fluoro-, 6-fluoro flavan] ?
Completion: 7.70

Prompt: Consider the molecule Cc1ccc(C2CCc3cc(C)ccc3O2)cc1 (stereo not drawn) [4',6-dimethyl-, 4',6-Dimethylflavan] and give its measured pEC50.
Completion: 7.38

Prompt: Suppose we examine the molecule Nc1ccc(C2CCc3ccccc3O2)cc1 (stereo not drawn) [4'-amino-, 4'-aminoflavan] ; what pEC50 value has been reported?
Completion: 7.30

Prompt: May I ask what pEC50 has been recorded for Fc1ccc(C2CCc3cc(Cl)ccc3O2)cc1 (stereo not drawn) [6-chloro-4'-fluoro, 6-chloro-4'-fluoro-flavan] ?
Completion: 7.80

---

# Experiment Notes: in vivo
# Measurement Conditions: mouse, po, 100 mg/kg
Assay Readout: concentration at 1 h (µM)
// return numeric value only (unit: µM, not printed)

Prompt: Look at this compound and give its reported concentration at 1 h. Clc1ccc(C2CCc3cc(Cl)ccc3O2)cc1 (stereo not shown)
Completion: 10

---

Parameter EC50: see the listing below.
# Test system: rhinovirus serotype 1B
# Experiment Notes: plaque reduction test
# Type: cell-based
# Measurement Conditions: Enterovirus, rhinovirus serotype 1B, plaque reduction test; read-out: ED50 (the source's name)
The reply should be a number in nM, with the unit left off.

1) Cc1ccc2c(c1)CCC(c1ccc(Cl)c(Cl)c1)O2 (stereo not shown); 17
2) FC(F)(F)c1cccc(C2CCc3ccccc3O2)c1 (stereo not shown); 1400
3) Cc1cccc(C2CCc3ccccc3O2)c1 (stereo not shown); 290
4) Cc1ccc(C2CCc3cc(Cl)ccc3O2)cc1 (stereo not shown); 2.3

Prompt: Given Fc1ccc(C2CCc3ccccc3O2)cc1 (stereo not shown) , state its recorded EC50.
Completion: 17.5

Prompt: Please report the recorded EC50 for Clc1ccc(C2CCc3cc(I)ccc3O2)cc1 (stereo not shown) .
Completion: 15

Prompt: Please report the recorded EC50 for Cc1ccc(C2CCc3ccc(Cl)cc3O2)cc1 (stereo not shown) .
Completion: 83

Prompt: Recorded EC50 for Cc1ccc2c(c1)CCC(c1ccccc1)O2 (stereo not shown) , please?
Completion: 150

Prompt: What value of EC50 has been reported for the following compound? Brc1ccc2c(c1)CCC(c1ccc(I)cc1)O2 (stereo not shown)
Completion: 21

Prompt: Name the reported EC50 value associated with the compound COc1cccc(C2CCc3ccccc3O2)c1 (stereo not shown)
Completion: 125

Prompt: Record request: EC50 value, item Clc1ccc2c(c1)CCC(c1ccccc1)O2 (stereo not shown)
Completion: 50

Prompt: What measured EC50 goes with COc1ccc(C2CCc3ccccc3O2)cc1 (stereo not shown) ?
Completion: 70

---

# System: rhinovirus serotype 1B
# Experiment Notes: plaque reduction test
# Assay type: cell-based
# Measurement Conditions: Enterovirus, rhinovirus serotype 1B, plaque reduction test; read-out: ED50 (the source's name)
The entries below are paired with their reported EC50.
Your answer should be a plain number; it is taken to be in nM.

1. CN(C)c1ccc(C2CCc3ccccc3O2)cc1 (stereo not drawn); 265
2. Fc1ccc(C2CCc3cc(I)ccc3O2)cc1 (stereo not drawn); 28
3. Clc1cccc(C2CCc3ccccc3O2)c1 (stereo not drawn); 270
4. Cc1ccccc1C1CCc2ccccc2O1 (stereo not drawn); 15
5. Fc1ccc(C2CCc3cc(Br)ccc3O2)cc1 (stereo not drawn); 29

Prompt: Reported EC50 for Cc1ccc(C2CCc3cc(Br)ccc3O2)cc1 (stereo not drawn) : what is it?
Completion: 18

Prompt: Suppose we examine the molecule N#Cc1ccc2c(c1)CCC(c1ccccc1)O2 (stereo not drawn) ; what EC50 value has been reported?
Completion: 38

Prompt: What value of measured EC50 is listed for c1ccc(C2CCc3ccccc3O2)cc1 (stereo not drawn) ?
Completion: 46

---

# Test system: rhinovirus serotype 1B
# Experiment Notes: plaque reduction test
# Format: cell-based
# Measurement Conditions: Enterovirus, rhinovirus serotype 1B, plaque reduction test; read-out: ED50 (the source's name)
Assay Readout: EC50 (µM)
// note: answer is a bare numeric in µM

Observe how each entry below is paired with its result.
1) COc1ccc(C2CCc3cc(C)ccc3O2)cc1 (stereo not shown); 0.1
2) N#Cc1ccc2c(c1)CCC(c1ccc(Cl)cc1)O2 (stereo not shown); 0.006
3) Clc1ccc(C2CCc3ccccc3O2)c(Cl)c1 (stereo not shown); 0.064

As a next step, examine the molecule that follows.
Prompt: Item: Oc1ccc(C2CCc3ccccc3O2)cc1 (stereo not shown) [4'-hydroxy-, 4'-hydroxyflavan] Test system: rhinovirus serotype 1B Read-out: EC50 Value: ?
Completion: 0.06
